- Test system: morningglory
- PROCEDURE SUMMARY: Test B pre-/postemergence herbicide test
- Format: in vivo, Ipomoea coccinea
- COND: postemergence, 125 g ai/ha; scale 0 to 100
The reader will find reported Morningglory plant response rating values listed item by item below.

| COMPOUND STRUCTURE | Morningglory plant response rating |
| --- | --- |
| CCOC(=O)c1cccc(NC(=O)c2nn(C(C)(C)C)nc2Br)c1 | 20 |
| C=Cc1nn(C(C)(C)C)nc1C(=O)Nc1cccc(C(=O)N(C)C)c1 | 60 |
| Cc1nn(C(C)(C)C)nc1C(=O)Nc1cc(C(=O)N(C)C)ccn1 | 40 |
| CCNC(=O)c1cncc(NC(=O)c2nn(C(C)(C)C)nc2C)c1 | 20 |
| CCc1nn(C(C)C)nc1C(=S)Nc1cccc(C(=S)N(C)C)c1 | 0 |
| CCN(CC)C(=O)c1cncc(NC(=O)c2nn(C(C)(C)C)nc2C)c1 | 20 |

---

Reported Corn plant response rating values follow for various molecules
- Tested on: corn
- PROCEDURE SUMMARY: Test C pre-/postemergence herbicide test
- Assay type: in vivo, Zea mays
- COND: Preemergence, 500 g ai/ha; scale 0 to 100, 0 no effect, 100 complete control

| COMPOUND STRUCTURE | Corn plant response rating |
| --- | --- |
| CCNC(=O)c1cccc(NC(=O)c2sc(C(C)(C)C)nc2C)c1 | 0 |
| CCn1nc(C(C)(C)C)cc1C(=O)Nc1cccc2c1CN(C)C2=O | 0 |
| C#CCn1nc(C(C)(C)C)cc1C(=O)Nc1cccc(C(=O)NCC)c1 | 10 |
| C#CCNC(=O)c1cccc(NC(=O)c2cc(C(C)(C)C)nn2CC)c1 | 10 |
| CCOC(=O)c1cc(NC(=O)c2cc(C(C)(C)C)nn2CC)ccc1OC | 40 |
| CCn1nc(C(C)(C)C)cc1C(=O)Nc1cccc(C(N)=O)n1 | 75 |
| CCNC(=O)c1ccc(F)c(NC(=O)c2cc(C(C)(C)C)nn2CC)c1 | 60 |

---

- Tested on: large crabgrass
- PROCEDURE SUMMARY: Test A pre-/postemergence herbicide test
- Format: in vivo, Digitaria sanguinalis
- COND: Postemergence, 500 g ai/ha; 0 to 100 scale, 0 no effect, 100 complete control
Attribute: Crabgrass, Large plant response rating

| COMPOUND STRUCTURE | Crabgrass, Large plant response rating |
| --- | --- |
| CCOC(=O)c1cccc(NC(=O)c2cc(C(C)(C)C)nn2CC)c1OC | 10 |
| CCc1nn(C(C)(C)C)cc1C(=S)Nc1cc(C(=S)N(C)C)ccc1F | 10 |
| CCc1nn(C(C)(C)C)cc1C(=O)Nc1cc(C(=S)N(C)C)ccc1F | 70 |
| CCn1nc(C(C)(C)C)cc1C(=O)Nc1cccc(SC(F)(F)F)c1 | 20 |
| C=CCNC(=O)c1cccc(NC(=O)c2sc(C(C)(C)C)nc2CC)c1 | 20 |

---

Entries and their Velvetleaf plant response rating values follow.
- Test system: velvetleaf
- PROCEDURE SUMMARY: Test A pre-/postemergence herbicide test
- Assay type: in vivo, Abutilon theophrasti
- COND: preemergence, 500 g ai/ha; visual injury, 0 to 100 scale (0 no effect, 100 complete control)
VALUE TYPE: Velvetleaf plant response rating

| COMPOUND STRUCTURE | VALUE TYPE | RESULT |
| --- | --- | --- |
| CCOC(=O)c1cncc(NC(=O)c2cc(C(C)(C)C)nn2CC)c1 | Velvetleaf plant response rating | 30 |
| CCn1nc(C(C)(C)C)cc1C(=O)Nc1cc(C(=O)OC)cc(C)n1 | Velvetleaf plant response rating | 0 |
| CCn1nc(C(C)(C)C)nc1C(=O)Nc1cccc(C(=O)N(C)C)c1 | Velvetleaf plant response rating | 85 |
| CCn1nc(C(C)(C)C)cc1C(=O)Nc1nc(OC)cc(OC)n1 | Velvetleaf plant response rating | 0 |
